Origin of measurements: paper PMC2586830

Target: the molecule itself
Experiment: FRET or BRET
propertyMeasured: binding result

protein="CFP–CpxR / YFP–CpxR, phosphorylated (natural protein, phosphorylated in vitro with phosphoramidate and MgSO4 (conserved aspartate of the receiver domain; residue number not given)) MNKILLVDDDRELTSLLKELLEMEGFNVIVAHDGEQALDLLDDSIDLLLLDVMMPKKNGIDTLKALRQTHQTPVIMLTARGSELDRVLGLELGADDYLPKPFNDRELVARIRAILRRSHWSEQQQNNDNGSPTLEVDALVLNPGRQEASFDGQTLELTGTEFTLLYLLAQHLGQVVSREHLSQEVLGKRLTPFDRAIDMHISNLRRKLPDRKDGHPWFKTLRGRGYLMVSAS" value=binds
protein="CFP–ArcA / YFP–ArcA, phosphorylated (natural protein, phosphorylated in vitro with phosphoramidate and MgSO4 (conserved aspartate of the receiver domain; residue number not given)) MQTPHILIVEDELVTRNTLKSIFEAEGYDVFEATDGAEMHQILSEYDINLVIMDINLPGKNGLLLARELREQANVALMFLTGRDNEVDKILGLEIGADDYITKPFNPRELTIRARNLLSRTMNLGTVSEERRSVESYKFNGWELDINSRSLIGPDGEQYKLPRSEFRAMLHFCENPGKIQSRAELLKKMTGRELKPHDRTVDVTIRRIRKHFESTPDTPEIIATIHGEGYRFCGDLED" value=binds
protein="CFP–BaeR / YFP–BaeR, phosphorylated (natural protein, phosphorylated in vitro with phosphoramidate and MgSO4 (conserved aspartate of the receiver domain; residue number not given)) MTELPIDENTPRILIVEDEPKLGQLLIDYLRAASYAPTLISHGDQVLPYVRQTPPDLILLDLMLPGTDGLTLCREIRRFSDIPIVMVTAKIEEIDRLLGLEIGADDYICKPYSPREVVARVKTILRRCKPQRELQQQDAESPLIIDEGRFQASWRGKMLDLTPAEFRLLKTLSHEPGKVFSREQLLNHLYDDYRVVTDRTIDSHIKNLRRKLESLDAEQSFIRAVYGVGYRWEADACRIV" value=binds
